Assay: A549 cell viability effects, profiling panel, calcein-AM fluorescence, 48 h, basal (AID 1162); also: test concentration not given here
Details: higher = more signal
Would you kindly list z-score for each of these compounds?
Could you respond with only the numeric value?

Per the record, CCCCC(=C=CC[C@@H](O)c1cccc(OCCO)c1)C[C@@H](O)COCc1ccccc1 has z-score of 1.1

Per the record, CC(C)CNC(=O)[C@@H]1c2ccccc2C(=O)N(CC23CC4CC(CC(C4)C2)C3)[C@H]1c1ccc(CO)cc1 has z-score of 0.226

Per the record, COC(=O)[C@@]1(Cc2ccc(OC)cc2)[C@@H]2[C@@H](CC(=O)[C@H]2CC(=O)C(=O)N2CCCC2)CN1C(=O)c1ccccc1 has z-score of -0.515

Per the record, [N-]=[N+]=NCc1ccccc1C[C@]1(C(=O)N2CCCCC2)N=C(c2ccc(OCCCO)cc2)O[C@H]1c1ccccc1 has z-score of -0.888

====

Test system: wheat germ agglutinin (Triticum aestivum), Alexa647-labelled
Assay: wheat germ agglutinin binders on compound microarrays, profiling panel, artefact control for SMM control-protein annotation, biochemical, small-molecule microarray, 635/667 nm fluorescence (AID 1140);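 also: score merges 667 nm feature emission with signal to noise over triplicate slides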
Conditions: WGA-A647 binding, 635 nm fluorescence, higher = more signal
The label depends only on composite z-score: 1 (yes) if it is at least 0.8, 0 (no) if it is smaller.

Determine whether this compound has composite z-score no lower than 0.8: COCCOC(=O)N1C(=O)[C@@]2(c3cc(C#CCNC(N)=O)ccc31)[C@H](C(=O)NC[C@H](O)c1ccccc1)[C@H]1C(=O)O[C@H](c3ccccc3)[C@H](c3ccccc3)N1[C@@H]2c1ccc(OCCO)cc1
1 (yes)

Determine whether this compound has composite z-score no lower than 0.8: COCCOC(=O)N1C(=O)[C@@]2(c3cc(C#CCC(C(=O)OC)C(=O)OC)ccc31)[C@H](C(=O)N1CCc3cc(OC)c(OC)cc3C1)[C@H]1C(=O)O[C@H](c3ccccc3)[C@H](c3ccccc3)N1[C@@H]2c1ccc(O)cc1
1 (yes)

Determine whether this compound has composite z-score no lower than 0.8: CCOC(=O)C[C@H]1[C@H](OC(=O)Cc2ccc3c(c2)OCO3)[C@@H](NC(=O)c2ccccc2)c2cc(OCCCO)ccc2N1C(=O)Cc1ccc(OC)cc1
0 (no)

Determine whether this compound has composite z-score no lower than 0.8: C=CC[C@@]12N=C(c3ccc(OCCCO)cc3)O[C@@H]1c1ccccc1N(Cc1ccccc1)C2=O
1 (yes)

Determine whether this compound has composite z-score no lower than 0.8: C=CC[C@]1(C(=O)N(C)C)COC(c2ccc(OCCCO)cc2)=N1
0 (no)

Determine whether this compound has composite z-score no lower than 0.8: CC(=O)c1ccc(C(O)C2C=CC3C(=O)N(C)C(=O)C3N2NC(=O)OC(C)(C)C)cc1 (stereo unspecified)
1 (yes)

Determine whether this compound has composite z-score no lower than 0.8: O=C1N(CCS(=O)(=O)c2ccccc2)c2ccccc2[C@@H]2OC(c3ccc(OCCCO)cc3)=N[C@]12CCS(=O)(=O)c1ccccc1
0 (no)

Determine whether this compound has composite z-score no lower than 0.8: N[C@@H](Cc1ccccc1)Cn1cc(C2(O)CCCCC2)nn1
0 (no)

Determine whether this compound has composite z-score no lower than 0.8: COc1ccc([Si](C)(C)[C@H]2[C@H](CCO)O[C@@]3(C(=O)N(Cc4ccccc4)c4ccc(N(C=O)c5ccccc5)cc43)[C@@H]2C)cc1
0 (no)

Determine whether this compound has composite z-score no lower than 0.8: Cc1ccc(F)cc1S(=O)(=O)N[C@@H]1CCN(Cc2ccc3c(c2)OCO3)C1
0 (no)

Determine whether this compound has composite z-score no lower than 0.8: CC(C)=CCN(C(=O)C#Cc1ccccc1)[C@H](CO)c1ccccc1
0 (no)

Determine whether this compound has composite z-score no lower than 0.8: C=C(COC)C(=O)CC[C@@H](OC(C)=O)c1ccc(OCCO)cc1
0 (no)

Determine whether this compound has composite z-score no lower than 0.8: CC(C)C[C@H]1NC(=O)[C@H](Cc2ccccc2)NC(=O)[C@@]23C(=O)N[C@@H](Cc4ccccc4)C2[C@H](C)[C@@]2(C)O[C@H]2C3/C=C/C/C=C\CNC1=O (stereo partly specified)
0 (no)

Determine whether this compound has composite z-score no lower than 0.8: O=C1C2C=CC(C(O)c3cccc(O)c3)N(Nc3ccccc3F)C2C(=O)N1c1ccccc1 (stereo unspecified)
0 (no)

Determine whether this compound has composite z-score no lower than 0.8: COC(=O)[C@@H]1N=C(c2ccc(OCCCO)cc2)O[C@@H]1c1ccccc1CN=[N+]=[N-]
1 (yes)

====

Target: Follistatin-related protein 3 (Homo sapiens) (UniProt O95633)
Sequence (O95633 whole entry, looked up): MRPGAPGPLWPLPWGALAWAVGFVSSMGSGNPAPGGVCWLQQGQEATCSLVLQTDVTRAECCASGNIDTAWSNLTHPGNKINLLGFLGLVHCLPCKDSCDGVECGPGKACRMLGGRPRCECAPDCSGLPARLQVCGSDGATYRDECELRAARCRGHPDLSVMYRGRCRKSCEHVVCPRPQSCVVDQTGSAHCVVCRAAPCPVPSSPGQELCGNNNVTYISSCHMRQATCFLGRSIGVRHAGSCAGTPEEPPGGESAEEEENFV
Assay: FSTL3 binders on small-molecule microarrays, primary screen, biochemical, small-molecule microarray, 635 nm fluorescence (AID 1105);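 also: score merges emission near 667 nm and signal to noise per printed spot across three slides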
Settings: FSTL3 binding, higher = more signal
Would you kindly list composite z-score for each of these molecules?

Per the record, CO[C@H]1O[C@H](CO)[C@@H](OC(=O)Nc2ccc(C(F)(F)F)cc2)[C@H](OC(=O)Nc2ccccc2-c2ccccc2)[C@H]1OC(=O)Nc1ccccc1-c1ccccc1 has composite z-score of 1.15

Per the record, COCCOC(=O)N1C(=O)[C@@]2(c3cc(C#Cc4ccc(OC)cc4)ccc31)[C@H](C(=O)N1CCCCCCC1)[C@H]1C(=O)O[C@H](c3ccccc3)[C@H](c3ccccc3)N1[C@@H]2c1ccccc1OCCO has composite z-score of 1.56

Per the record, COCC(=C=CC[C@@H](O)c1ccc(OCCO)cc1)C[C@@H](O)COCc1ccccc1 has composite z-score of 0.939

====

Assay: basal RPMI8226 mitochondrial membrane potential changes, profiling panel, cell-based, JC-1 fluorescence, 24 h, 100 nL compound (AID 1169); also: test concentration not given here
Conditions: RPMI8226 myeloma, JC-1 mitochondrial potential fluorescence, higher = more signal
Would you kindly list z-score for each of these molecules?
Could you respond with only the numeric value?

Per the record, O=C1O[C@@H](c2ccccc2)[C@@H](c2ccccc2)N2[C@@H](c3ccc(OCCO)cc3)[C@]3(C(=O)Nc4ccc(C#CCCO)cc43)[C@@H](C(=O)Nc3nc4ccccc4s3)[C@H]12 has z-score of -1.06

Per the record, COc1ccc([Si](C)(C)[C@H]2[C@H](CCn3cc([C@H](O)c4ccccc4)nn3)O[C@@]3(C(=O)N(c4ccccc4)c4ccccc43)[C@@H]2C)cc1 has z-score of -0.932

Per the record, C[C@@H](OCc1ccccc1)C1NC(=O)[C@@]23C(=O)N[C@@H](Cc4ccccc4)C2[C@H](C)[C@@]2(C)O[C@H]2C3/C=C/C/C=C\CNC(=O)[C@H](Cc2ccccc2)NC1=O (stereo partly drawn) has z-score of -0.497

====

Assay: E. coli growth modulation, two-sided OD650, primary screen, E. coli filamentation project, strain DRC41, 24 h (AID 1093);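 also: MC1000 strain lacking acrAB efflux and sulA so SOS filamentation is blocked; test concentration not given here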
Details: OD650, 24 h, higher = more signal, called active from +8 up or from −8 down
Would you kindly list z-score for each of these compounds?
Could you respond with only the numeric value?

Per the record, NC(=O)[C@@]1(CCS(=O)(=O)c2ccccc2)COC(c2ccc(OCCCO)cc2)=N1 has z-score of 0.817

Per the record, O=C1O[C@H](c2ccccc2)[C@H](c2ccccc2)N2[C@H]1[C@@H](C(=O)NC[C@H](O)c1ccccc1)[C@]1(C(=O)Nc3ccc(C#CCCO)cc31)[C@H]2c1ccccc1OCCO has z-score of 1.19

Per the record, CC1CC/C=C\[C@H]2OC34C=CCN(c5ccc(Cl)cc5)C(=O)[C@H]3N(CCCO)C(=O)[C@]4(C)C2C(=O)O1 (some centres not stated) has z-score of -0.643

Per the record, C[N+](C)(C)CCCCCCNC(=O)[C@@H]1C[C@@H]2C(=O)N[C@@H](Cc3ccccc3)C(=O)N2[C@@H]1c1ccc(O)cc1 has z-score of -0.0343

Per the record, COC(=O)[C@@]1(Cc2ccc(F)cc2)[C@H]2c3cc(C(=O)N(C)C)n(CCO)c3C[C@H]2CN1C(=O)c1ccccc1 has z-score of -0.28

Per the record, COc1ccc(CCNC(=O)[C@@]2(Sc3ccc(C)cc3)CC(=O)N(C(C)C)[C@@H]2c2ccc(CO)cc2)cc1 has z-score of -0.015

Per the record, CC(C)CNC(=O)[C@@H]1c2ccccc2C(=O)N(Cc2ccccc2)[C@H]1c1ccc(CO)cc1 has z-score of -0.73

====

Would you kindly list composite z-score for each of these compounds?
Target: Carbonic anhydrase 2 (Homo sapiens) (UniProt P00918)
Test: CAII small-molecule binders, profiling panel, biochemical, small-molecule microarray, Alexa647-labelled CAII (AID 1122)
Conditions: CAII-A647 binding fluorescence, higher = more signal
Could you respond with only the numeric value?

Per the record, CN(C)CCCC[C@@H]1NC(=O)[C@@H]2C[C@H](C(=O)NCc3ccc(F)cc3)[C@H](c3ccc(O)cc3)N2C1=O has composite z-score of 0.609

Per the record, CCCC[C@@H]1C[C@H]1[C@@H](NC(=O)Cc1ccccc1)c1ccc(Cl)cc1 has composite z-score of 0.69

Per the record, C=C(COC)C(=O)CC[C@@H](OC(C)=O)c1ccc(OCCO)cc1 has composite z-score of 0.648

Per the record, C[C@@H](OCc1ccccc1)C1NC(=O)[C@@]23C(=O)N[C@@H](Cc4ccccc4)C2[C@H](C)[C@@]2(C)O[C@H]2C3/C=C/C/C=C\CNC(=O)[C@H](Cc2ccccc2)NC1=O (stereo partly drawn) has composite z-score of 0.618

Per the record, COCCOC(=O)N1C(=O)[C@@]2(c3cc(C#CCCO)ccc31)[C@H](C(=O)N1CCN(c3ncccn3)CC1)[C@H]1C(=O)O[C@H](c3ccccc3)[C@H](c3ccccc3)N1[C@@H]2c1ccc(O)cc1 has composite z-score of 0.244

Per the record, CCOC(=O)C1=C(C(=O)OCC)N(S(=O)(=O)CC[Si](C)(C)C)[C@H](c2ccccc2)CC1 has composite z-score of 0.443

Per the record, C=CCOC(=O)[C@H]1[C@@H]2C(=O)O[C@@H](c3ccccc3)[C@@H](c3ccccc3)N2[C@@H](c2ccc(OCCOC(=O)[C@H]3C[C@H]4C(=O)NCC(=O)N4[C@H]3c3ccc(O)cc3)cc2)[C@]12C(=O)Nc1ccc(I)cc12 has composite z-score of 0.0742

Per the record, CCCCN1CC=CC23O[C@@H]4/C=C\CCC(C)OC(=O)C4[C@H]2C(=O)N(C(C)CO)[C@@H]3C1=O (stereo partly drawn) has composite z-score of 0.822

Data credit: PubChem BioAssay
